Entries and their koff
biological target: murine DLL4 (murine) (UniProt Q9JI71); test: Biacore (SPR), DVD-Ig and muDLL4
Give just the number in s⁻¹; leave the unit off.

Query: Which koff is listed for h1A11.1-B9-S2-SS-Anti-VEGF DVD-Ig (bispecific antibody, part only; not given: anti-VEGF domains, h1A11.1 VL, constant regions, part only) heavy, part: EVQLVESGGGLVQPGGSLRLSCAASGFTFSHFPMAWVRQAPGKGLEWVASISSSDSTTNYRDSVKGRFTISRDNAKNSLYLQMNSLRAEDTAVYYCARGYYNSPFAYWGQGTLVTVSSASTKGP light, part: TVAAP ?
Reply: 0.000205

Query: Which koff is listed for h1A11.1-F7-S2-SS-Anti-VEGF DVD-Ig (bispecific antibody, part only; not given: anti-VEGF domains, h1A11.1 VL, constant regions, part only) heavy, part: EVQLVESGGGLVQPGGSLRLSCAASGFTFRHFPMTWVRQAPGKGLEWVASISSSDGTINYRDSVKGRFTISRDNAKNSLYLQMNSLRAEDTAVYYCARGYYNSPFAYWGQGTLVTVSSASTKGP light, part: TVAAP ?
Reply: 0.000483
